- recorded-conditions: human gut metagenome, 24 h, 2 µM; further: call rule not given here
attribute-measured: Bacterial Biotransformation

{"molecule": "Nc1nc2ccc(OC(F)(F)F)cc2s1", "obs-value": "Compound metabolized"}
{"molecule": "CC(C)OC(=O)C(C)(C)Oc1ccc(C(=O)c2ccc(Cl)cc2)cc1 [FENOFIBRATE]", "obs-value": "Compound metabolized"}
{"molecule": "COc1c(C)c2c(c(O)c1C/C=C(\\C)CCC(=O)OCCN1CCOCC1)C(=O)OC2 [MYCOPHENOLATE MOFETIL]", "obs-value": "Compound metabolized"}
{"molecule": "CCCc1nc2c(C)cc(-c3nc4ccccc4n3C)cc2n1Cc1ccc(-c2ccccc2C(=O)O)cc1", "obs-value": "Compound metabolized"}
{"molecule": "Clc1ccc(Cn2c(CN3CCCC3)nc3ccccc32)cc1", "obs-value": "Compound metabolized"}
{"molecule": "Cc1nc2n(c(=O)c1CCN1CCC(c3noc4cc(F)ccc34)CC1)CCCC2", "obs-value": "Compound metabolized"}
{"molecule": "OC(CCN1CCCCC1)(c1ccccc1)C1CCCCC1 (stereo not drawn)", "obs-value": "Compound metabolized"}
{"molecule": "CN1CCN(C(=O)O[C@H]2c3nccnc3C(=O)N2c2ccc(Cl)cn2)CC1", "obs-value": "Compound NOT metabolized"}
{"molecule": "Cc1nc(-c2ccc(OCC(C)C)c(C#N)c2)sc1C(=O)O", "obs-value": "Compound metabolized"}
{"molecule": "CCOC(=O)[C@H](CCc1ccccc1)N[C@@H](C)C(=O)N1[C@H](C(=O)O)C[C@H]2CCCC[C@@H]21", "obs-value": "Compound metabolized"}
{"molecule": "C[C@@H]1C[C@H]2[C@@H]3CCC4=CC(=O)C=C[C@]4(C)[C@@]3(F)[C@@H](O)C[C@]2(C)[C@@]1(O)C(=O)CO", "obs-value": "Compound NOT metabolized"}
{"molecule": "Nc1c2c(nc3ccccc13)CCCC2", "obs-value": "Compound metabolized"}
{"molecule": "O=C(O)CCc1nc(-c2ccccc2)c(-c2ccccc2)o1", "obs-value": "Compound metabolized"}
{"molecule": "O=c1[nH]c2ccccc2n1C1CCN(CCCC(c2ccc(F)cc2)c2ccc(F)cc2)CC1 [PIMOZIDE]", "obs-value": "Compound metabolized"}
{"molecule": "COc1cc2nc(N(C)CCCNC(=O)C3CCCO3)nc(N)c2cc1OC (stereo not drawn)", "obs-value": "Compound metabolized"}
{"molecule": "CN1C(=O)CC(C)(c2ccccc2)C1=O (stereo not drawn) [METHSUXIMIDE]", "obs-value": "Compound NOT metabolized"}
{"molecule": "CC(C)N(CCC(C(N)=O)(c1ccccc1)c1ccccn1)C(C)C.O=P(O)(O)O (stereo not drawn) [DISOPYRAMIDE PHOSPHATE]", "obs-value": "Compound NOT metabolized"}
{"molecule": "Cc1cc2c(cc1S(N)(=O)=O)S(=O)(=O)CCC2", "obs-value": "Compound NOT metabolized"}
